biological target: Motilin Receptor (Oryctolagus cuniculus); construct: strips of longitudinal smooth muscle were sliced from the segments; from tissue; host or cells: rabbit duodenum longitudinal smooth muscle strips; assay: Tissue based assay for motilin agonist potency (rabbit duodenum contractility); assay type: cell-based; settings: rabbit duodenum strips, contraction normalized to 1 μM carbachol; read-out: Motilin Receptor Agonist Activity (EC50)
Sequence (G1T803 1-400): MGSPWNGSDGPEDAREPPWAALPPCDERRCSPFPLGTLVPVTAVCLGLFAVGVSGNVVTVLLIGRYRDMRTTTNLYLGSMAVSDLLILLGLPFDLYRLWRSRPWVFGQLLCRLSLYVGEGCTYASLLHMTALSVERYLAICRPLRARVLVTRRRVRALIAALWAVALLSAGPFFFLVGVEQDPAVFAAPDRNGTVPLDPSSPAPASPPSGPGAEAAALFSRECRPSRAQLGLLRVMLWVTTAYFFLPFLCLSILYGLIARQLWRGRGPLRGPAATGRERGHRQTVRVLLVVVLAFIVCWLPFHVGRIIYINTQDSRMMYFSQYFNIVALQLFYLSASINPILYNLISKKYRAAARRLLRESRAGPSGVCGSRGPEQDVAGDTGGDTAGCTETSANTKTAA
property.measured: EC50 (nM)
Please respond with the number in nM and leave the unit unwritten.

# EC50 of CC[C@H]1OC(=O)[C@H](C)[C@@H](O[C@H]2C[C@@](C)(OC)[C@@H](O)[C@H](C)O2)[C@H](C)[C@@H](O[C@@H]2O[C@H](C)C[C@H](N(C)C(C)C)[C@H]2O)[C@](C)(O)C[C@@H](C)[C@H](OCCNC=O)[C@H](C)[C@@H](O)[C@]1(C)O [Compound A-78] = 31

# EC50 of CC[C@H]1OC(=O)[C@H](C)[C@@H](O[C@H]2C[C@@](C)(OC)[C@@H](O)[C@H](C)O2)[C@H](C)[C@@H](O[C@@H]2O[C@H](C)C[C@H](N(C)C(C)C)[C@H]2O)[C@](C)(O)C[C@@H](C)[C@H](OC(=O)N(C)C)[C@H](C)[C@@H](O)[C@]1(C)O [Compound A-18] = 310

# EC50 of CC[C@H]1OC(=O)[C@H](C)[C@@H](O[C@H]2C[C@@](C)(OC)[C@@H](O)[C@H](C)O2)[C@H](C)[C@@H](O[C@@H]2O[C@H](C)C[C@H](N(C)C(C)C)[C@H]2O)[C@](C)(O)C[C@@H](C)[C@H](OCC(=O)OC)[C@H](C)[C@@H](O)[C@]1(C)O [Compound A-22] = 140

***
# EC50 of CC[C@H]1OC(=O)[C@H](C)[C@@H](O[C@H]2C[C@@](C)(OC)[C@@H](O)[C@H](C)O2)[C@H](C)[C@@H](O[C@@H]2O[C@H](C)C[C@H](N(C)C(C)C)[C@H]2O)[C@](C)(O)C[C@@H](C)[C@H](OCCCCC(=O)NC)[C@H](C)[C@@H](O)[C@]1(C)O [Compound A-74] = 270
